The origin of these recorded values is paper PMC10020958.

# Experiment Summary: Thermodynamic solubility in phosphate buffer pH = 7.4
# Type: physicochemical
# Reported Conditions: phosphate buffer (Dulbecco's phosphate-buffered saline), aqueous buffer, thermodynamic from solid, phosphate buffer pH = 7.4, 20 °C
Readout: solubility at 24 h

Compound Structure: Cc1ccc2nc(-c3ccc(F)cc3)n(CC(=O)N3CCCC3)c2c1
Meas Value: 0.05 mg/mL

Compound Structure: NC(=O)c1cccc(NC(=O)Cn2c(-c3ccc(F)cc3)nc3ccccc32)c1
Meas Value: 0.074 mg/mL

====

Collected remaining at 2 h, 50 μM values appear next to each entry.
# Experiment Summary: in vitro
# Reported Conditions: human, microsomes, % remaining (parent compound)
# Method: Given that our goal was to obtain metabolically stable scaffolds, we selected 9 and 23 as representatives of each series for metabolic stability studies using human liver microsomes (HLMs). […] The in vitro evaluation of the metabolic stability of the selected compound was performed using human liver microsomes (HLMs) (Sigma-Aldrich, St. Louis, MO, USA) as described previously.[25] […] The resulting supernatant was analyzed using an LC/MS Waters ACQUITY TQD system (Waters, Milford, USA).

Molecule: Cc1ccc2nc(-c3ccc(F)cc3)n(CC(=O)N3CCCC3)c2c1
remaining at 2 h, 50 μM: 90%
//
Molecule: NC(=O)c1cccc(NC(=O)Cn2c(-c3ccc(F)cc3)nc3ccccc32)c1
remaining at 2 h, 50 μM: 89.1%
//
Molecule: CCCN(CCC)C(=O)Cc1c(-c2ccc(Cl)cc2)nc2ccc(Cl)cn12 [alpidem, reference compound]
remaining at 2 h, 50 μM: 38.6%
